protocol_notes: compound effects on lung adenocarcinoma cell viability – A549, calcein-AM fluorescence, 48 h, basal, profiling panel (AID 1162); also: test concentration not given here
measurement_setup: higher = more signal
z-score overview

- compound: "CC(C)=CCCC(C)=CC(O)C1C=CC2C(=O)NC(=O)C2N1Nc1ccc(Cl)cc1Cl (stereo not drawn)"
  z-score: -0.483
- compound: "CC(C)N1C(=O)c2ccccc2[C@](C)(C(=O)NCC(F)(F)F)[C@@H]1c1ccc(CO)cc1"
  z-score: 0.508
- compound: "CC(C)[Si](C#CCCc1ccccc1)(O[C@H](c1ccccc1)c1cn(Cc2ccccc2)nn1)C(C)C"
  z-score: -0.865
- compound: "CCCc1cc2c(n1CCc1ccc(Cl)cc1)C(C)C1CN(C(=O)c3ccccc3)C(C)(C(=O)OC)C21 (stereo not drawn)"
  z-score: -1.7
- compound: "C=CCC(OC(C)=O)[C@@H]1[C@@H](N(Cc2ccc(-c3cccc(C(F)(F)F)c3)o2)C(=O)c2ccc(-c3ccccc3)cc2)c2cc(OCCCO)ccc2N1C(=O)c1ccc2ccccc2c1 (stereo partly drawn)"
  z-score: 0.965
- compound: "O=C(NC1CC1)[C@@H]1c2ccccc2C(=O)N(CC23CC4CC(CC(C4)C2)C3)[C@H]1c1ccc(CO)cc1"
  z-score: 0.554
- compound: "COc1ccc(C(O)C2C=CC3C(=O)N(C)C(=O)C3N2N(c2ccccc2)c2ccccc2)cc1 (stereo not drawn)"
  z-score: -0.738
- compound: "COc1ccc(NN2C(C(O)c3ccc(I)cc3)C=CC3C(=O)N(C4CCCCC4)C(=O)C32)cc1 (stereo not drawn)"
  z-score: -0.302

---

Test system: Lefty1
protocol_notes: Lefty1 protein binding to printed compounds – biochemical, small-molecule microarray, 635/667 nm fluorescence, primary screen (AID 1139)
measurement_setup: fluorescence 635/667, higher = more signal
composite z-score overview
property_label: composite z-score

- compound_string: "CC(C)=C1C(=O)C(c2ccccc2)=C2CN3C(=O)N(CCc4ccccc4)C(=O)[C@]3(C)[C@H]21"
  measured_value: -0.455
- compound_string: "[N-]=[N+]=Nc1ccccc1[C@@H]1OC(c2ccc(OCCCO)cc2)=N[C@]1(Cc1ccccc1)C(=O)NCCN1CCOCC1"
  measured_value: 0.278
- compound_string: "COC(=O)[C@@]1(Cc2ccccc2)[C@H]2c3cc(C(=O)N(C)C)n(Cc4ccc(S(C)(=O)=O)cc4)c3C[C@H]2CN1C(=O)c1ccccc1"
  measured_value: -0.367
- compound_string: "COc1ccc(C(=O)Nc2cccc(CN3C(=O)[C@@]4(O[C@@H](CC(=O)N5CCC[C@H]5CO)[C@H]([Si](C)(C)c5ccc(OC)cc5)[C@H]4C)c4ccccc43)c2)cc1"
  measured_value: 0.703
- compound_string: "C[C@@H]1ON(c2ccc(I)cc2)[C@H](c2cccc(NC(=O)OCC3c4ccccc4-c4ccccc43)c2)[C@H]1C(=O)N1C(=O)OC[C@H]1Cc1ccccc1"
  measured_value: 0.593
- compound_string: "CN(C)CCCC[C@@H]1NC(=O)[C@H]2C[C@@H](C(=O)O)[C@@H](c3ccc(O)cc3)N2C1=O"
  measured_value: 1.63
- compound_string: "COC(=O)[C@@]1(Cc2ccc(F)cc2)[C@H]2c3cc(C(=O)N4CCCC4)n(Cc4ccccn4)c3C[C@H]2CN1C(=O)c1ccccc1"
  measured_value: -0.2
- compound_string: "COc1ccc(C(=O)Nc2ccc(CN3C(=O)[C@@]4(O[C@@H](CCn5cc(CCO)nn5)[C@H]([Si](C)(C)c5ccc(OC)cc5)[C@H]4C)c4ccccc43)cc2)cc1"
  measured_value: 1.1
- compound_string: "COc1ccc(C(=O)Nc2cccc(CN3C(=O)[C@]4(O[C@H](CC(=O)N5Cc6ccccc6C[C@H]5CO)[C@@H]([Si](C)(C)c5ccc(OC)cc5)[C@@H]4C)c4ccccc43)c2)cc1"
  measured_value: 1.59
- compound_string: "CCOC(=O)C[C@H]1[C@H](OC(=O)Cc2ccc3c(c2)OCO3)[C@@H](NC(=O)Cc2ccc(OC)cc2)c2cc(OCCCO)ccc2N1C(=O)Cc1ccc(OC)cc1"
  measured_value: 0.0681
- compound_string: "O=C1O[C@@H](c2ccccc2)[C@@H](c2ccccc2)N2[C@@H](c3ccc(OCCO)cc3)[C@]3(C(=O)Nc4ccc(C#CC5(O)CCCCCC5)cc43)[C@@H](C(=O)Nc3nc4ccccc4s3)[C@H]12"
  measured_value: 1.22
- compound_string: "COc1ccc([Si](C)(C)[C@@H]2[C@@H](CC(=O)N3CCC[C@H]3CO)O[C@]3(C(=O)N(Cc4cccc(N5CCCCC5=O)c4)c4ccccc43)[C@H]2C)cc1"
  measured_value: 1.23

---

protocol_notes: compound effects on lung adenocarcinoma cell viability – A549, calcein-AM fluorescence, 48 h, basal, profiling panel (AID 1162); also: test concentration not given here
measurement_setup: higher = more signal
Response key: TRUE means z-score >= 0.3; FALSE means z-score < 0.3.

- compound: "CC(C)C(=C=CC[C@H](O)c1ccccc1OCCO)C[C@H](O)COCc1ccccc1"
  assigned_class: "TRUE"
- compound: "N#Cc1ccc(C(O)C2C=CC3C(=O)NC(=O)C3N2Nc2ccc(Cl)cc2Cl)cc1 (stereo not drawn)"
  assigned_class: "FALSE"
- compound: "COC(=O)[C@@]1(Cc2ccccc2)N=C(c2ccc(OCCCO)cc2)O[C@H]1c1ccccc1CN=[N+]=[N-]"
  assigned_class: "FALSE"
- compound: "CC1=C([C@H](O)CCc2ccccc2)[C@H](CO)n2c(=O)n(-c3ccccc3)c(=O)n2C1"
  assigned_class: "FALSE"
- compound: "CN(C)CCCNC(=O)[C@@]1(C)c2ccccc2C(=O)N(Cc2ccc(OC(F)(F)F)cc2)[C@H]1c1ccc(CO)cc1"
  assigned_class: "FALSE"
- compound: "COC(=O)[C@]1(CCC(=O)OC(C)(C)C)N=C(c2ccc(OCCCO)cc2)O[C@@H]1c1ccccc1N=[N+]=[N-]"
  assigned_class: "FALSE"
- compound: "CC1CC/C=C\\[C@H]2OC34C=CCN(Cc5ccccc5)C(=O)[C@H]3N(CCCCCCO)C(=O)[C@@H]4C2C(=O)O1 (stereo partly drawn)"
  assigned_class: "TRUE"

---

measurement_target: Fibroblast growth factor 10 (Homo sapiens) (UniProt O15520)
Sequence (O15520 whole entry, looked up): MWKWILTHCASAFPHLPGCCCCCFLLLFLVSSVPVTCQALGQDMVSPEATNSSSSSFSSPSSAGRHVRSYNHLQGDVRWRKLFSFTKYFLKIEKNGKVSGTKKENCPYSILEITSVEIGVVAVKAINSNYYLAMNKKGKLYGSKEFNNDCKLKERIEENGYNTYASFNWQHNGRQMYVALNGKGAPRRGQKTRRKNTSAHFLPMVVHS
protocol_notes: compounds binding fibroblast growth factor 10 – biochemical, small-molecule microarray, 635 nm fluorescence, primary screen (AID 1102)
measurement_setup: FGF10 binding, fluorescence 635 nm, higher = more signal

- molecule: "CO[C@H]1O[C@H](CO)[C@@H](OC(=O)Nc2ccccc2)[C@H](OC(=O)Nc2ccccc2)[C@H]1OC(=O)Nc1ccccc1"
  composite z-score: 1.48
- molecule: "O=C(NCCN1CCOCC1)[C@@H]1c2ccccc2C(=O)N(Cc2ccccc2C(F)(F)F)[C@H]1c1ccc(CO)cc1"
  composite z-score: -0.393
- molecule: "COc1ccc([Si](C)(C)[C@@H]2[C@@H](CC(=O)N3Cc4ccccc4C[C@H]3CO)O[C@]3(C(=O)N(Cc4ccc(N5CCOC5=O)cc4)c4ccccc43)[C@H]2C)cc1"
  composite z-score: 0.723
- molecule: "Cc1ccc(S[C@]2(C(=O)NC(C)C)CC(=O)N(C3CCCCC3)[C@@H]2c2ccc(CO)cc2I)cc1"
  composite z-score: 0.612
- molecule: "O=C1OCCC=C[C@H]2OC34C=CCN(c5ccc6ccccc6c5)C(=O)[C@H]3N(CCO)C(=O)[C@@H]4C12 (some centres not stated)"
  composite z-score: -0.0326
- molecule: "[N-]=[N+]=Nc1ccccc1[C@H]1OC(c2ccc(OCCCO)cc2)=N[C@@]1(Cc1ccccc1)C(=O)NCC(O)CO (some centres not stated)"
  composite z-score: -0.0795
- molecule: "N#Cc1ccc(C(O)C2C=CC3C(=O)NC(=O)C3N2Nc2ccc(Cl)cc2Cl)cc1 (configuration not stated)"
  composite z-score: 0.599

---

measurement_target: Calmodulin-1 (Homo sapiens)
protocol_notes: small molecules binding Ca-loaded calmodulin-1 – biochemical, small-molecule microarray, Cy5-labelled CALM1, plus calcium, artefact control for SMM control-protein annotation, profiling panel (AID 1112);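 also: score merges spot fluorescence with signal to noise from triplicate slides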
measurement_setup: Cy5-CALM1 binding fluorescence, higher = more signal
Response key: 1 (yes) means composite z-score >= 0.5; 0 (no) means composite z-score < 0.5.

- compound: "NC(=O)N1C(=O)C2C(C1=O)C1C=C(CCCO)C2C(c2ccc(CN3CCCC3)cc2)N1Cc1sc2ccccc2c1Cl (stereo not given)"
  measurement_target: "Calmodulin-1 (Homo sapiens)"
  assigned_class: "0 (no)"
- compound: "CN(C)CCCNC(=O)[C@@]1(C)c2ccccc2C(=O)N(Cc2ccc(OC(F)(F)F)cc2)[C@H]1c1ccc(CO)cc1"
  measurement_target: "Calmodulin-1 (Homo sapiens)"
  assigned_class: "1 (yes)"
- compound: "COc1ccc([Si](C)(C)[C@H]2[C@H](CCO)O[C@@]3(C(=O)N(Cc4cccc(N5C(=O)c6ccccc6Oc6ccccc65)c4)c4ccccc43)[C@@H]2C)cc1"
  measurement_target: "Calmodulin-1 (Homo sapiens)"
  assigned_class: "1 (yes)"
- compound: "CCOC(=O)C[C@H]1[C@H](OC(=O)Cc2ccc3c(c2)OCO3)[C@@H](NC(=O)Cc2ccc(OC)cc2)c2cc(OCCCO)ccc2N1C(=O)Cc1ccc(OC)cc1"
  measurement_target: "Calmodulin-1 (Homo sapiens)"
  assigned_class: "0 (no)"
- compound: "COC(=O)[C@@]1(Cc2ccccc2)[C@H]2c3cc(C(=O)N(C)C)n(CCSC(=N)N)c3C[C@H]2CN1C(=O)c1ccccc1"
  measurement_target: "Calmodulin-1 (Homo sapiens)"
  assigned_class: "0 (no)"
- compound: "CC1=C([C@H](O)CCc2ccccc2)[C@H](CO)n2c(=O)n(-c3ccccc3)c(=O)n2C1"
  measurement_target: "Calmodulin-1 (Homo sapiens)"
  assigned_class: "0 (no)"
- compound: "COc1cc(C(O)C2C=CC3C(=O)N(c4ccccc4)C(=O)C3N2Nc2ccccc2)cc(OC)c1OC (stereo not given)"
  measurement_target: "Calmodulin-1 (Homo sapiens)"
  assigned_class: "1 (yes)"
- compound: "C=CCC(OC(C)=O)[C@@H]1[C@@H](N(Cc2cccc3ccccc23)C(=O)Cc2ccc(OC)cc2)c2cc(OCCCO)ccc2N1C(=O)c1ccc2ccccc2c1 (stereo not given in full)"
  measurement_target: "Calmodulin-1 (Homo sapiens)"
  assigned_class: "0 (no)"
- compound: "O=C1O[C@H](c2ccccc2)[C@H](c2ccccc2)N2[C@H]1[C@@H](C(=O)O)[C@]1(C(=O)Nc3ccc(C#CCCO)cc31)[C@H]2c1ccc(OCCO)cc1"
  measurement_target: "Calmodulin-1 (Homo sapiens)"
  assigned_class: "1 (yes)"
- compound: "Cc1ccc(S[C@]2(C(=O)NCc3ccccc3)CC(=O)N(Cc3ccccc3C(F)(F)F)[C@@H]2c2ccc(CO)cc2)cc1"
  measurement_target: "Calmodulin-1 (Homo sapiens)"
  assigned_class: "0 (no)"
- compound: "CCCCN1CC=CC23O[C@@H]4/C=C\\CCCOC(=O)C4[C@H]2C(=O)N(C(CO)C(C)C)[C@@H]3C1=O (stereo not given in full)"
  measurement_target: "Calmodulin-1 (Homo sapiens)"
  assigned_class: "0 (no)"
- compound: "CC(C)(C)N1CC=CC23O[C@@H]4C=CCOC(=O)[C@@H]4[C@H]2C(=O)N(CCO)[C@@H]3C1=O (stereo not given in full)"
  measurement_target: "Calmodulin-1 (Homo sapiens)"
  assigned_class: "1 (yes)"
- compound: "CCCC[C@H]1OB(O)C[C@H]2C1=C(COc1ccccc1)C[C@H]1C(=O)C=CC(=O)[C@H]12"
  measurement_target: "Calmodulin-1 (Homo sapiens)"
  assigned_class: "0 (no)"
- compound: "CN(C)CCCC[C@@H]1NC(=O)[C@@H]2C[C@H](C(=O)NCCCCCCNC(=O)CS)[C@H](c3ccc(O)cc3)N2C1=O"
  measurement_target: "Calmodulin-1 (Homo sapiens)"
  assigned_class: "0 (no)"
- compound: "CC1CC/C=C\\[C@H]2OC34C=CCN(Cc5ccccc5)C(=O)[C@H]3N(CCCCCCO)C(=O)[C@@H]4C2C(=O)O1 (stereo not given in full)"
  measurement_target: "Calmodulin-1 (Homo sapiens)"
  assigned_class: "1 (yes)"
